So I've got a bunch of molecules here, and I need their inhibition at 1 µM values.
target: TrkA(h) (Homo sapiens, UniProt P04629); construct: purchased Millipore (KinaseProfiler Service); assay: KinaseProfiler (Millipore) radiometric kinase assay, TrkA(h); type: biochemical; details: compound concentration 1 μM
Sequence (P04629 33-796): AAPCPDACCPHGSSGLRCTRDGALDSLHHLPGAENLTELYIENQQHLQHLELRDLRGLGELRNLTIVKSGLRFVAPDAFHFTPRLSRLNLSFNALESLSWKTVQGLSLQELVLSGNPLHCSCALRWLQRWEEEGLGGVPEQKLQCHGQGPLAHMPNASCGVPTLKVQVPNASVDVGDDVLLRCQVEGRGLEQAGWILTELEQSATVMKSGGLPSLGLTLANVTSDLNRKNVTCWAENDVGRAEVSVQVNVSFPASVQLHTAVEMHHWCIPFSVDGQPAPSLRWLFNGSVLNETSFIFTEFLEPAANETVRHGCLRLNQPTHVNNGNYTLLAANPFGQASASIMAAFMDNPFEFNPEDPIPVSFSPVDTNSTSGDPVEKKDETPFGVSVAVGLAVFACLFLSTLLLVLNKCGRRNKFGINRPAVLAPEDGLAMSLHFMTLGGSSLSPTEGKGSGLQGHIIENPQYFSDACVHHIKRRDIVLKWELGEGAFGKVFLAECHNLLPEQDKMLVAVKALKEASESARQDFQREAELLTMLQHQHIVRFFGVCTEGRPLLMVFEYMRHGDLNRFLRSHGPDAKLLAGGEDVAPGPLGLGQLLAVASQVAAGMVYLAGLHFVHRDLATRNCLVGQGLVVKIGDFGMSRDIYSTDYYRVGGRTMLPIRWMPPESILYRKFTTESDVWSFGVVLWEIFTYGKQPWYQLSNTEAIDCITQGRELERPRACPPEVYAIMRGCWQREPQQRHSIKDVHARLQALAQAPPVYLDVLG
Give just the number in %; leave the unit off.

Query string: Return reported inhibition at 1 µM; argument: Cc1cc(Nc2cc(NC(C)c3ccc(F)cc3F)ncn2)n[nH]1 (stereo not drawn)
Result string: 99

Query string: Moving on to the next molecule: C[C@H](Nc1cc(Nc2cc(C3CC3)[nH]n2)nc(N)n1)c1ccc(F)cc1F
Result string: 100

Query string: And what about the molecule COCC(Nc1cc(Nc2cc(C3CC3)[nH]n2)ncn1)c1ccccc1 (stereo not drawn) ?
Result string: 85

Query string: Record: CC(Nc1cc(Nc2cc(C3CC3)[nH]n2)ncn1)c1ccc(F)cc1Cl (stereo not drawn)
Result string: 101

Query string: What about this molecule? CC(Nc1cc(Nc2ccn(C3CCOCC3)n2)ncn1)c1ccc(F)cc1F (stereo not drawn)
Result string: 5

Query string: Now consider C[C@H](Nc1cc(Nc2cc(C3CC3)[nH]n2)ncn1)c1ccc(F)cc1Cl .
Result string: 100

Query string: Query CN1CCN(CC(Nc2cc(Nc3cc(C4CC4)[nH]n3)ncn2)c2ccccc2)CC1 (stereo not drawn) next
Result string: 7

Query string: Query C[C@H](Nc1cc(Nc2cc(C3CC3)[nH]n2)ncn1)c1ccc(F)cc1F next
Result string: 101

Query string: Consider next the molecule c1ccc(C(CN2CCOCC2)Nc2cc(Nc3cc(C4CC4)[nH]n3)ncn2)cc1 (stereo not drawn) in the same way.
Result string: 71

Query string: Then CC(Nc1cc(Nc2cc(C3CC3)[nH]n2)ncn1)c1cc(F)ccc1F (stereo not drawn) ?
Result string: 99

Query string: Then this molecule: CC(Nc1cc(Nc2cc(C3CC3)[nH]n2)ncn1)c1ccc(F)c(Cl)c1 (stereo not drawn)
Result string: 97

Query string: Same for CC(Nc1cc(Nc2cc(C3CC3)n(C)n2)ncn1)c1ccc(F)cc1F (stereo not drawn)
Result string: 25

Query string: Now consider C[C@H](Nc1ncnc(Nc2cc(C3CC3)[nH]n2)c1F)c1ccc(F)cc1 and answer again.
Result string: 87

Query string: What about COc1c(Nc2cc(C3CC3)[nH]n2)ncnc1N[C@@H](C)c1ccc(F)cc1 ?
Result string: 0

Query string: And CC(Nc1cc(Nc2cc(C3CC3)[nH]n2)ncn1)c1ccc(F)cn1 (stereo not drawn) ?
Result string: 95

Query string: Next record, please: C[C@H](Nc1ncnc(Nc2cc(C3CC3)[nH]n2)c1Cl)c1ccc(F)cc1
Result string: 56

Query string: Ok, now CC(Nc1cc(Nc2cc(C3CC3)n(C(=O)OC(C)(C)C)n2)ncn1)c1c(F)cccc1F (stereo not drawn)
Result string: 99

Query string: Also CC(c1cc(F)ccc1F)N(C)c1cc(Nc2cc(C3CC3)[nH]n2)ncn1 (stereo not drawn) ?
Result string: 95

---

Can you tell me % Inhibition@ 1 μM (TrkA(h)) for the items I'm about to list?
biological target: TrkA(h) (Homo sapiens, UniProt P04629); construct: purchased Millipore (KinaseProfiler Service); test: KinaseProfiler (Millipore) radiometric kinase assay, TrkA(h); format: biochemical; conditions: compound concentration 1 μM
Hi! Could you send only the number? It should be in %, unit omitted.

Query string: For the compound CC(Nc1cc(Nc2cc(C3CC3)[nH]n2)ncn1)c1ccc(F)cn1 (centres unmarked) [Example 46] , what % Inhibition@ 1 μM (TrkA(h)) is on record?
Result string: 98

Query string: Thanks! And CC(Nc1cc(Nc2cc(C3CC3)[nH]n2)ncn1)c1ccc(F)cn1 (centres unmarked) [Example 44] ?
Result string: 98

Query string: Can you check CC(Nc1cc(Nc2cc(C3CC3)[nH]n2)ncn1)c1ccc(F)cn1 (centres unmarked) [Example 52] next?
Result string: 101

Query string: # iterate: CC(Nc1cc(Nc2cc(C3CC3)[nH]n2)ncn1)c1ccc(F)cn1 (centres unmarked) [Example 57]
Result string: 95

Query string: Continue with CC(Nc1cc(Nc2cc(C3CC3)[nH]n2)ncn1)c1ccc(F)cn1 (centres unmarked) [Example 45]
Result string: 100
